system: CD2F1 mice, L1210 leukemia ip, survival T/C; assay: NCI In Vivo Anticancer Drug Screen. Data for tumor model L1210 Leukemia (intraperitoneal) in CD2F1 (CDF1) mice; settings: endpoint: mean survival time; dose: 25.0 mg/kg/injection; schedule: Q04DX003 (ip); vehicle: saline with Tween-80; higher = longer survival
Toxic doses and inconclusive results are not listed.
QUANTITY KIND: T/C

{"columns": ["COMPOUND", "RESULT"],
 "data": [
  ["O=C(NCC(S)c1ccc(Cl)cc1)C(F)(F)F (stereo not given)", "90 % of control"],
  ["O=C(C[n+]1ccccc1Cc1ccccc1)c1ccccc1", "93 % of control"],
  ["O=C(O)c1cc(F)c(F)c(F)c1F", "96 % of control"],
  ["c1ccc(CCc2ccccn2)nc1", "105 % of control"],
  ["O=C(C=C(C(F)(F)F)C(F)(F)F)c1ccco1", "102 % of control"]
]}
